Quick note: these are pKd numbers for system: S100A4 (Homo sapiens, UniProt P26447)
Sequence (P26447 whole entry): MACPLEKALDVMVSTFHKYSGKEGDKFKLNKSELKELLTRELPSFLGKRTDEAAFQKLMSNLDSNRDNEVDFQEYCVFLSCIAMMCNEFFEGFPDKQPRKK
One number for each entry, as −log10 of the molar value.

Some compounds with known pKd results, for comparison:
| smiles-text | pKd |
| --- | --- |
| C[C@@H](O)[C@@H](CC(=O)N[C@H]1CCCC[C@@H]1C(=O)N[C@H]1CCCC[C@@H]1C(=O)N[C@H](CC(=O)N[C@H]1CCCC[C@@H]1C(=O)NCC(=O)N[C@@H](CCCCNC(=O)c1ccc2c(c1)C1(OC2=O)c2ccc(O)cc2Oc2cc(O)ccc21)C(N)=O)Cc1c[nH]c2ccccc12)NC(=O)[C@H]1CCCC[C@@H]1N | 3.74 |
| NC(=O)[C@H](CCCCNC(=O)c1ccc2c(c1)C1(OC2=O)c2ccc(O)cc2Oc2cc(O)ccc21)NC(=O)CNC(=O)[C@H]1CCCC[C@@H]1NC(=O)C[C@H](Cc1ccccc1)NC(=O)[C@H]1CCCC[C@@H]1NC(=O)[C@H]1CCCC[C@@H]1NC(=O)C[C@H](Cc1ccc(O)cc1)NC(=O)[C@H]1CCCC[C@@H]1N | 3.95 |
| N=C(N)NCCC[C@@H](CC(=O)N[C@H]1CCCC[C@@H]1C(=O)N[C@H]1CCCC[C@@H]1C(=O)N[C@H](CC(=O)N[C@H]1CCCC[C@@H]1C(=O)NCC(=O)N[C@@H](CCCCNC(=O)c1ccc2c(c1)C1(OC2=O)c2ccc(O)cc2Oc2cc(O)ccc21)C(N)=O)Cc1ccccc1)NC(=O)[C@H]1CCCC[C@@H]1N | 3.34 |

Now for the compound whose pKd we want.
Report pKd for CC[C@H](C)[C@@H](CC(=O)N[C@H]1CCCC[C@@H]1C(=O)N[C@H]1CCCC[C@@H]1C(=O)N[C@H](CC(=O)N[C@H]1CCCC[C@@H]1C(=O)NCC(=O)N[C@@H](CCCCNC(=O)c1ccc2c(c1)C1(OC2=O)c2ccc(O)cc2Oc2cc(O)ccc21)C(N)=O)CC(C)C)NC(=O)[C@H]1CCCC[C@@H]1N
3.82

Source of measurements: paper PMC8991199
